protocol.text: reduced viability of SK-BR-3 breast cancer cells – cell-based, 24 h, human, pilot screen (AID 572);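 also: compound exposure lasted between 18 and 24 h rather than exactly 24 h; 100% = carrier-treated control wells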
condition.summary: SK-BR-3 viability, CellTiter-Glo luminescence, at 10 µM, stronger effect = lower value
Assignment: determine reported viability for the given compounds.
Provide only the numeric value, understood in %.

Given COC(=O)c1cc(=O)n(Cc2ccc3c(c2)OCO3)c(=Nc2ccccc2)s1 , state its recorded viability.
90

Given Cc1ccc(C)c2[nH]c(=O)c(CCNC(=O)CC(C)(C)C)cc12 , state its recorded viability.
88

Given COc1ccc(-c2nc3c(n2O)CCC/C3=N\O)cc1 , state its recorded viability.
89.5

Given CCc1ccc(C2CC(c3cccc(OC)c3)n3nc(N)nc3N2)cc1 (stereo unspecified) , state its recorded viability.
90

Given Cc1ccc2nc(NC(=O)Cn3cc4c(n3)CCCCC4)sc2c1 , state its recorded viability.
91.5

Given COc1cc(OC)c2c(c1)OC(c1ccc(OC)c(OC)c1)C(O)C2=O (stereo unspecified) , state its recorded viability.
90.5

---

protocol.text: MRP1 drug-resistance reversers in H69AR cells – cell-based, doxorubicin co-treatment, pilot screen (AID 601)
condition.summary: H69AR cells, CellTiter-Glo, 72 h; compound alone cytotoxicity; at 10 µM
property.name: viability (%)
Provide only the numeric value, understood in %.

Given O=C(/C=C/N1CCOCC1)c1ccc(-c2ccccc2)cc1 , state its recorded viability.
89.5

Given Cc1ccc2oc(=O)c3cnn(CC(=O)NCCC(C)C)c3c2c1 , state its recorded viability.
88.1

Given COc1ccccc1-c1cc2nc(C)c(CCC(=O)NCc3ccco3)c(C)n2n1 , state its recorded viability.
89.9

Given O=C(OCN1C(=O)c2ccccc2C1=O)C1CCCCC1 , state its recorded viability.
87.6

---

Assignment: determine reported growth inhibition for the given molecules.
protocol.text: S. cerevisiae growth inhibition in permissive medium (OD615), pilot counter-assay for S. cerevisiae lifespan shortening project, permissive growth control (AID 705)
condition.summary: OD615, 24 h, at 10 µM, stronger effect = higher value
Activity calls are given as the source filed them.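 Rule for the calls: active = growth inhibition above 25% in both replicates, a cutoff set 3 SD above the mean; inconclusive = above 25% in only one replicate; inactive = the rest.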

Given CCCNC(=O)C1CC(=O)N(c2ccc(OCC(=O)Nc3cc(C)cc(C)c3)cc2)C1 (configuration not stated) , state its recorded growth inhibition.
-14.5% (inactive)

Given COc1ccc(CNC(=O)CCS(=O)(=O)c2cccc3nonc23)cc1 , state its recorded growth inhibition.
-4.22% (inactive)

Given CC1CCN(C(=O)CSc2nnc(-c3ccco3)o2)CC1 , state its recorded growth inhibition.
0.09% (inactive)

Given CCOc1ccc(C2CC(c3ccc(OC)cc3)n3ncnc3N2)cc1 (configuration not stated) , state its recorded growth inhibition.
1.92% (inactive)

Given CCOC(=O)N(C)OC(=O)Nc1ccc(Cl)c(Cl)c1 , state its recorded growth inhibition.
-17.1% (inactive)

Given Fc1cccc(Nc2ncnc3c2cnn3-c2ccccc2)c1 , state its recorded growth inhibition.
-5.18% (inactive)

Given CC(C)(C)n1nc2c(c1NC(=O)c1ccc(Br)cc1)CS(=O)C2 (configuration not stated) , state its recorded growth inhibition.
-8.25% (inactive)

---

protocol.text: viability of PTEN-null HCT116 cells – cell-based, HCT116 clonal line, CellTiter-Glo, pilot screen (AID 824);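 also: 0% = 20 µM Hyamine control and 100% = vehicle cell control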
condition.summary: HCT116 PTEN-deleted viability, 60 h, at 10 µM, stronger effect = lower value
Results filed as inconclusive are left out. Calls of active or inactive are those of the source.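 How the source made its calls: active means viability at or below 27.92% in each of two runs, the all-compound median minus 4 SD; inconclusive means no clear call, values can overlap the other calls; inactive means the rest.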
Assignment: determine reported viability for the given compounds.

Given CCOc1ccc(Cn2nnc(C(=O)Nc3cc(OC)cc(OC)c3)c2N)cc1 , state its recorded viability.
88% (inactive)

Given CCN1C(=O)c2ccccc2S(=O)(=O)c2ccc(C(=O)NCc3cccnc3)cc21 , state its recorded viability.
90.4% (inactive)

Given CCN1CCN(c2nc3c(c(=O)[nH]c(=O)n3C)n2CCSc2nc3ccccc3s2)CC1 , state its recorded viability.
91.4% (inactive)

Given Cc1ccccc1-c1c(C)oc2cc(O)ccc2c1=O , state its recorded viability.
92.2% (inactive)

Given COc1ccccc1N1C(=O)CCC1(C#N)c1ccccc1 (configuration not stated) , state its recorded viability.
99.7% (inactive)

Given CC1(C)CC(=O)CC(C2(O)C(=O)N(Cc3ccccc3)c3ccccc32)O1 (configuration not stated) , state its recorded viability.
44.2% (inactive)

Given COC(=O)c1cn(C(=O)c2ccc(Br)o2)c2ccccc12 , state its recorded viability.
102% (inactive)

Given COc1cccc2cc(C(=O)OC3CCN(C)CC3)c(=O)oc12 , state its recorded viability.
107% (inactive)

Given Cc1ccc(S(=O)(=O)N(CC(=O)N2CCC(C(N)=O)CC2)Cc2ccc(F)cc2)cc1 , state its recorded viability.
87.2% (inactive)

Given Cc1cc(N2CCOCC2)nc2ccc(NC(=O)C3CCC(C)CC3)cc12 (configuration not stated) , state its recorded viability.
81% (inactive)

Given COc1cccc(C2CC(c3ccc(C)cc3)Nc3nc(N)nn32)c1 (configuration not stated) , state its recorded viability.
95.5% (inactive)

Given C#CCOC(=O)C1C2C=CC(C2)C1C(=O)O (configuration not stated) , state its recorded viability.
96.8% (inactive)

Given C(=N\c1nccs1)/c1cccnc1 , state its recorded viability.
100% (inactive)

Given CCOc1ccc(S(=O)(=O)N2CCN(c3ccc(C)cc3C)CC2)cc1 , state its recorded viability.
83.5% (inactive)

Given COc1ccc(N2CCN(C(=O)c3cc4c(-c5ccc(Cl)cc5)nn(C)c4s3)CC2)cc1 , state its recorded viability.
71.4% (inactive)

Given CCOC(=O)c1ccccc1NC(=O)c1ccc2c(=O)n3c(nc2c1)CCCCC3 , state its recorded viability.
81.2% (inactive)

Given Cc1cc(C)c(NC(=O)CSc2nc3c(c(=O)n2C)SC(C)C3)c(C)c1 (configuration not stated) , state its recorded viability.
77.5% (inactive)

Given COc1cccc2cc(C(=O)N3CCC(C)CC3)c(=O)oc12 , state its recorded viability.
90.5% (inactive)

Given Cn1cccc1Cc1nnc(SCC(=O)N2CCCCCC2)n1-c1ccc(F)cc1 , state its recorded viability.
88.5% (inactive)

Given CC1CCCC(NC(=O)c2ccc(CNc3c(N4CCCC4)c(=O)c3=O)cc2)C1C (configuration not stated) , state its recorded viability.
84.4% (inactive)

Given Cc1ccc(C(C)C)c(OCCCN2CC(C)OC(C)C2)c1 (configuration not stated) , state its recorded viability.
89.3% (inactive)

Given CCCCOc1ccc(S(=O)(=O)Nc2cc(OC)ccc2OC)cc1 , state its recorded viability.
71.3% (inactive)

Given COc1cc(NC(=O)C2CCCN2S(=O)(=O)c2cccc3cccnc23)cc(OC)c1OC (configuration not stated) , state its recorded viability.
79.4% (inactive)

Given COc1ccc(-n2nnc3c(=O)n(CC(=O)N4CCC(C)CC4)cnc32)cc1 , state its recorded viability.
92.3% (inactive)

Given CCOC(=O)N1CCN(c2cc(=O)n(-c3cccc(Br)c3)c(=O)[nH]2)CC1 , state its recorded viability.
93.5% (inactive)

Given Cn1cccc1Cc1nnc(SCC(=O)NCc2ccccc2)n1-c1ccc(F)cc1 , state its recorded viability.
89.8% (inactive)

Given CCOc1ccc(N2C(=O)CC(N3CC(C)OC(C)C3)C2=O)cc1 (configuration not stated) , state its recorded viability.
98.8% (inactive)

Given CCOC(=O)N1CCC(NC(=O)c2ccc(CS(=O)(=O)c3c(Cl)cccc3Cl)o2)CC1 , state its recorded viability.
93.5% (inactive)

Given Cc1occc1C(=O)N1CCN(Cc2ccccc2)CC1 , state its recorded viability.
97.6% (inactive)

Given O=c1cc(-c2ccco2)oc2ccc(Cl)cc12 , state its recorded viability.
98.2% (inactive)

Given O=C(C1CC1)N1CCc2cc(Br)cc(S(=O)(=O)N3CCN(c4ccccn4)CC3)c21 , state its recorded viability.
91.5% (inactive)

Given COc1ccc(OC)c2sc(NC(=O)c3ccc(S(=O)(=O)N(C)C)cc3)nc12 , state its recorded viability.
68.9% (inactive)
